Read-out: flavin-containing dimethylaniline monooxygenases 3 (FMO3), FMO3 (gene 2328)
assay protocol: LTEA_HepaRG_FMO3: Life Technologies and Expression Analysis (LTEA) Assay for flavin-containing dimethylaniline monooxygenases 3 (FMO3) using HepaRG (AID 2283453)
condition label: mRNA level, 48 h; actives raise or lower the signal
The source made the active and inactive calls. The calls were made as follows: active = hit-call score of the fitted dose curve at least 0.9, where 1 is the maximum; inactive = score below 0.9.
A correct response names exactly one class from y (active), n (inactive)

CCCC1COC(Cn2cncn2)(c2ccc(Cl)cc2Cl)O1 (stereo not given) : y

Ask: Check the results log: what was the call for CC(Oc1ccc(Cl)cc1Cl)C(=O)O (stereo not given) ?
Result: n

Ask: One more compound: `C=CCC1=C(C)[C@@H](OC(=O)[C@@H]2[C@@H](C=C(C)C)C2(C)C)CC1=O`
Result: n

Ask: One more compound: `N#Cc1cc(Br)c(O)c(Br)c1`
Result: y

Ask: One more compound: `COC(=O)C=C(C)OP(=O)(OC)OC`
Result: n

----------
Read-out: Interleukin-6 (IL6), IL6 (gene 3569)
assay protocol: BSK_CASM3C_IL6: BioMAP Diversity Plus: CASM3C Assay for Interleukin-6 (IL6) Biomarker Activity for (AID 2283040)
condition label: primary human coronary artery smooth muscle cells; actives raise or lower the signal
The source made the active and inactive calls. How the source made its calls: active means hit-call score of the fitted dose curve at least 0.9, where 1 is the maximum; inactive means score below 0.9.
A correct response names exactly one class from active, inactive

Ask: Check the results log: what was the call for `O=C(O)COc1nc(Cl)c(Cl)cc1Cl` ?
Result: inactive

Ask: One more molecule: `COC(=O)c1ccccc1C(=O)OC`
Result: inactive

Ask: One more molecule: `COC(=O)C=C(C)OP(=O)(OC)OC`
Result: inactive

Ask: One more molecule: `Fc1ccc(Oc2ccnc3cc(Cl)cc(Cl)c23)cc1`
Result: active

Ask: One more molecule: COP(N)(=O)SC (stereo not drawn)
Result: inactive

Ask: One more molecule: `Cc1cc(Cl)ccc1OCC(=O)O`
Result: inactive

Ask: One more molecule: CCON=C(CC)C1=C(O)CC(c2c(C)cc(C)cc2C)CC1=O (stereo not drawn)
Result: inactive

Ask: One more molecule: `COc1nc(C)nc(NC(=O)NS(=O)(=O)c2ccccc2Cl)n1`
Result: inactive

----------
Read-out: Nuclear factor NF-kappa-B p105 subunit (Homo sapiens) (UniProt P19838)
Sequence (P19838 whole entry, looked up): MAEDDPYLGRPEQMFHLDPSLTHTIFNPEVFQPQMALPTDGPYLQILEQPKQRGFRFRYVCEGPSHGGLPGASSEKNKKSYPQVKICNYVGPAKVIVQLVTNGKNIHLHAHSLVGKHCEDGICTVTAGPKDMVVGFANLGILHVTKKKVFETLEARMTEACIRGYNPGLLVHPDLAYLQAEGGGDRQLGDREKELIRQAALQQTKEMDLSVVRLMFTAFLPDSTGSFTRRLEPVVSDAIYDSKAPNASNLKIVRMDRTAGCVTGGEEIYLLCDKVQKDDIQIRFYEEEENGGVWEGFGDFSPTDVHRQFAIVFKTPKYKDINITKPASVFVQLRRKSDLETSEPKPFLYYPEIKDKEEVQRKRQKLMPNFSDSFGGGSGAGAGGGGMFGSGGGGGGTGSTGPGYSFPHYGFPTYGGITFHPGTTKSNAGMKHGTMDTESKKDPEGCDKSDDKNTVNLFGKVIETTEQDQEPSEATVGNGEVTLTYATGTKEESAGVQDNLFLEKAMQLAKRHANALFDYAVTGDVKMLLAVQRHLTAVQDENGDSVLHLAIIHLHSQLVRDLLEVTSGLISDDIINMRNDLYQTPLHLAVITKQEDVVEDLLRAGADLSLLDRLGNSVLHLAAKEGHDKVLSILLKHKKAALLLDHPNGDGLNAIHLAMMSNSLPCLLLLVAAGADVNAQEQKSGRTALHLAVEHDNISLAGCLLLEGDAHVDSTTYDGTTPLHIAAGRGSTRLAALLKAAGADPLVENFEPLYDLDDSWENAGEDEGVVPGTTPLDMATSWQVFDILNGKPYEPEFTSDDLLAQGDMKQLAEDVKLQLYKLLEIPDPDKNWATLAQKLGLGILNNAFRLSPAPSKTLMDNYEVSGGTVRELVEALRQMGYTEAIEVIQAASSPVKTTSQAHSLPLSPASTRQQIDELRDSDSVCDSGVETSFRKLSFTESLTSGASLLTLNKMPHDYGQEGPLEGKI
assay protocol: LTEA_HepaRG_NFKB1: Life Technologies and Expression Analysis (LTEA) Assay for Nuclear Factor Kappa B Subunit 1 (NFKB1) using HepaRG (AID 2283521)
condition label: mRNA level, 48 h; actives raise or lower the signal
Description: LTEA_HepaRG is a cell based, multiplexed-readout assay that uses HepaRG, a human liver cell line, with measurements taken at 48 hours after chemical dosing on a 96-well plate.LTEA_HepaRG_NFKB1 is one of 102 assay component(s) measured in the LTEA HepaRG cell culture assay. It is a marker of Cell proliferation, survival, death.Data from the assay component LTEA_HepaRG_NFKB1 was analyzed into 1 endpoint. […]
Calls of active or inactive are those of the source. Rule for the calls: active = hit-call score of the fitted dose curve at least 0.9, where 1 is the maximum; inactive = score below 0.9.
A correct response names exactly one class from label 1 (active), label 0 (inactive)

Completed entries (count: 2):
Cc1ccc(-c2c(Cl)nc(C#N)n2S(=O)(=O)N(C)C)cc1 : label 1
CCCCOC(=O)c1ccccc1C(=O)OCCCC : label 0

Ask: Check the results log: what was the call for CCOC(=O)CC(SP(=S)(OC)OC)C(=O)OCC (stereo not given) ?
Result: label 0

Ask: One more compound: `CCOc1cc(Oc2ccc(C(F)(F)F)cc2Cl)ccc1[N+](=O)[O-]`
Result: label 0

----------
assay protocol: Tanguay_ZF_120hpf_SNOU_legacy: (Legacy) Oregon State University Tanguay Lab 120 Hour Post-fertilization zebrafish Assay for Snout Malformation (AID 2283637)
Records with an inconclusive call do not appear. Calls of active or inactive are those of the source. How the source made its calls: active means hit-call score of the fitted dose curve at least 0.9, where 1 is the maximum; inconclusive means response in the unintended direction; inactive means score below 0.9.
A correct response names exactly one class from active, inactive

C=CC1(C)OC(=O)N(c2cc(Cl)cc(Cl)c2)C1=O (configuration not stated) : inactive
CC(C)Oc1cc(-n2nc(C(C)(C)C)oc2=O)c(Cl)cc1Cl : inactive
CC(C)(C)c1ccc(CSc2cnn(C(C)(C)C)c(=O)c2Cl)cc1 : inactive
COC(=O)c1ccccc1C(=O)OC : inactive
CCNc1nc(Cl)nc(NCC)n1 : inactive

Ask: Check the results log: what was the call for CCOC(=O)CC(SP(=S)(OC)OC)C(=O)OCC (configuration not stated) ?
Result: active

Ask: One more compound: `CC1=C(C(=O)Nc2ccccc2)SCCO1`
Result: inactive

Ask: One more compound: `COc1cnc(OC)n2nc(NS(=O)(=O)c3c(OCC(F)F)cccc3C(F)(F)F)nc12`
Result: inactive

Ask: One more compound: `COC(=O)N(OC)c1ccccc1COc1ccn(-c2ccc(Cl)cc2)n1`
Result: inactive

Ask: One more compound: `Cc1cc(Cl)ccc1OCC(=O)O`
Result: inactive

Ask: One more compound: COC(=O)C(C)Oc1ccc(Oc2ccc(Cl)cc2Cl)cc1 (configuration not stated)
Result: inactive

----------
Read-out: Interleukin-8 (IL8), CXCL8 (gene 3576)
assay protocol: BSK_CASM3C_IL8: BioMAP Diversity Plus: CASM3C Assay for Interleukin-8 (IL8) Biomarker Activity (AID 2283042);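 also: IL-8 protein level quantified by ELISA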
condition label: primary human coronary artery smooth muscle cells; actives raise or lower the signal
Activity calls are given as the source filed them. Rule for the calls: active = hit-call score of the fitted dose curve at least 0.9, where 1 is the maximum; inactive = score below 0.9.
A correct response names exactly one class from active, inactive

CCCN(CCC)c1c([N+](=O)[O-])cc(S(N)(=O)=O)cc1[N+](=O)[O-] : active

Ask: Check the results log: what was the call for `Oc1ccccc1-c1ccccc1` ?
Result: inactive

Ask: One more compound: OC(c1ccc(Cl)cc1)(c1cncnc1)c1ccccc1Cl (stereo not drawn)
Result: inactive

Ask: One more compound: CCCCC(CC)COC(=O)c1ccccc1C(=O)OCC(CC)CCCC (stereo not drawn)
Result: inactive

Ask: One more compound: `CS/C(C)=N/OC(=O)N(C)SN(C)C(=O)O/N=C(\C)SC`
Result: active

Ask: One more compound: CCON=C(CC)C1=C(O)CC(c2c(C)cc(C)cc2C)CC1=O (stereo not drawn)
Result: inactive

Ask: One more compound: `CCNc1nc(Cl)nc(NC(C)C)n1`
Result: inactive

Ask: One more compound: `COC(=O)C=C(C)OP(=O)(OC)OC`
Result: inactive

Ask: One more compound: `Cc1cc(Cl)ccc1OCC(=O)O`
Result: inactive

Ask: One more compound: `COc1nc(NC(C)C)nc(NC(C)C)n1`
Result: inactive

Ask: One more compound: `CC(C)(C)c1ccc(CSc2cnn(C(C)(C)C)c(=O)c2Cl)cc1`
Result: inactive

----------
Read-out: 3-Hydroxy-3-Methylglutaryl-CoA Synthase 2 (HMGCS2), HMGCS2 (gene 3158)
assay protocol: LTEA_HepaRG_HMGCS2: Life Technologies and Expression Analysis (LTEA) Assay for 3-Hydroxy-3-Methylglutaryl-CoA Synthase 2 (HMGCS2) using HepaRG (AID 2283504)
condition label: mRNA level, 48 h; actives raise or lower the signal
Activity calls are given as the source filed them. The calls were made as follows: active = hit-call score of the fitted dose curve at least 0.9, where 1 is the maximum; inactive = score below 0.9.
A correct response names exactly one class from active, inactive

Fc1ccc(Oc2ccnc3cc(Cl)cc(Cl)c23)cc1 : inactive
CCON=C(CC)C1=C(O)CC(c2c(C)cc(C)cc2C)CC1=O (stereo not given) : inactive
C=CC1(C)OC(=O)N(c2cc(Cl)cc(Cl)c2)C1=O (stereo not given) : inactive
COP(N)(=O)SC (stereo not given) : inactive
Cc1c(F)c(F)c(COC(=O)C2C(/C=C(\Cl)C(F)(F)F)C2(C)C)c(F)c1F (stereo not given) : inactive
CCCCC(CC)COC(=O)c1ccccc1C(=O)OCC(CC)CCCC (stereo not given) : inactive
C=CCC1=C(C)[C@@H](OC(=O)[C@@H]2[C@@H](C=C(C)C)C2(C)C)CC1=O : active
Cc1cc(Cl)ccc1OCC(=O)O : inactive
CC(C)C1(C)N=C(c2nc3ccccc3cc2C(=O)O)NC1=O (stereo not given) : inactive
N#Cc1cc(Br)c(O)c(Br)c1 : active

# next compound below
Ask: Check the results log: what was the call for `CCCCNC(=O)n1c(NC(=O)OC)nc2ccccc21` ?
Result: inactive

----------
study system: Estrogen receptor (Homo sapiens) (UniProt P03372)
Sequence (P03372 whole entry, looked up): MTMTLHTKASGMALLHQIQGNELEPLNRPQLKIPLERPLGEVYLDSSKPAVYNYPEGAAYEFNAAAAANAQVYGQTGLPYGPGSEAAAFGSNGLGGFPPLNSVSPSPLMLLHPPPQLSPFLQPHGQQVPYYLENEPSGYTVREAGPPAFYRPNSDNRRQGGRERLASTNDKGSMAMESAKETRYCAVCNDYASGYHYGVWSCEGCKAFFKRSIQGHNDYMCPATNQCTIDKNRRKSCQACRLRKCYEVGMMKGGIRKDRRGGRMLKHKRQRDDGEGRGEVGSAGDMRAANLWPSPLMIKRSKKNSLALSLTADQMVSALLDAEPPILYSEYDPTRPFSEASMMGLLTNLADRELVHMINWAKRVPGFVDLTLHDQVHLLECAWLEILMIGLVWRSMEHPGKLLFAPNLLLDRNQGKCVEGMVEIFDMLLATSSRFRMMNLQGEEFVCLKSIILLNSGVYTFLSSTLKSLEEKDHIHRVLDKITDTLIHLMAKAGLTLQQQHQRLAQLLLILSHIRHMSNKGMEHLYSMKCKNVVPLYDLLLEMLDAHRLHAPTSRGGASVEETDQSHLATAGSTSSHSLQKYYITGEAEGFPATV
assay protocol: ATG_hERa_XSP2: Attagene TRANS-FACTORIAL Multi-Species (XSP2) HepG2 Assay for human Estrogen Receptor (ERa) (AID 2283827)
Results filed as inconclusive are left out. Calls of active or inactive are those of the source. How the source made its calls: active means hit-call score of the fitted dose curve at least 0.9, where 1 is the maximum; inconclusive means response in the unintended direction; inactive means score below 0.9.
A correct response names exactly one class from active, inactive

Completed entries (count: 3):
CCOP(=S)(OCC)SCn1c(=O)oc2cc(Cl)ccc21 : active
CC(C)(C)c1ccc(CSc2cnn(C(C)(C)C)c(=O)c2Cl)cc1 : inactive
CCCCOC(=O)c1ccccc1C(=O)OCCCC : active

Ask: Check the results log: what was the call for `COc1ccc(C(c2ccc(OC)cc2)C(Cl)(Cl)Cl)cc1` ?
Result: active

Ask: One more molecule: `COC(=O)N(OC)c1ccccc1COc1ccn(-c2ccc(Cl)cc2)n1`
Result: active

Ask: One more molecule: `COP(=S)(OC)Oc1nc(Cl)c(Cl)cc1Cl`
Result: active
